Data origin: the Human Domainome abundance scans (Beltran et al. 2025)

B1: SH3 and PX domain-containing protein 2B, residues 155 to 209; numbered along this chain, A1X283 (parent)
chain: EQYVVVANYQKQESSEISLSVGQVVDIIEKNESGWWFVSTAEEQGWVPATCLEGQ

Variants of: B1
Test: abundance fitness (aPCA) (normalised: wild type 0, dead -1); higher = more abundant; growth selection in yeast, the domain comes from the species named
Details: Homo sapiens
Each entry gets false (0) if its abundance fitness stays under -0.2, and true (1) if its abundance fitness is -0.2 or above.

Task: Decide: abundance fitness of T50H >= -0.2?
Result: false (0)

Task: Form field: abundance fitness at least -0.2? Entry: Y3N
Result: false (0)

Task: Could you please find out whether E53D has abundance fitness that meets -0.2 or exceeds it?
Result: true (1)

Task: Does E32M have a reported abundance fitness of at least -0.2?
Result: true (1)

Task: Hi team, for G22N , is the recorded abundance fitness at or above -0.2?
Result: false (0)

Task: Check the entry K30Q : does abundance fitness equal or exceed -0.2?
Result: true (1)

Task: Does S14Y have a reported abundance fitness of at least -0.2?
Result: true (1)

Task: Form field: abundance fitness at least -0.2? Entry: L52Q
Result: false (0)

Task: Does the variant L19I have recorded abundance fitness that is -0.2 or more?
Result: true (1)

Task: Evaluate A41H : abundance fitness at minimum -0.2?
Result: true (1)

Task: Is reported abundance fitness greater than or equal to -0.2 here: W35R
Result: true (1)
